# EXPERIMENTAL_PROTOCOL: NCI Yeast Anticancer Drug Screen. Data for the sgs1 strain (AID 173);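 note: 0% = growth of vehicle-only control cultures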
# EXPERIMENTAL_SETUP: S. cerevisiae sgs1 mutant, at 1.2 µM, stronger effect = higher value
About 79,000 compounds went through this panel and 15% of them were active in at least one assay; those are over-represented in the sample as a whole.
Each record here notes measured growth inhibition.
Numeric answer only, unit % assumed.

Solved cases (4 shown):
Quick one: growth inhibition of COc1ccc(/C=C2\NC(=S)N(/C=C3\C(=O)Oc4ccccc4C3=O)C2=O)cc1 ? 0

Quick one: growth inhibition of CC1=C(SCc2ccccc2)C(=O)c2ccccc2C1=O ? -53

Quick one: growth inhibition of Cc1cc(O)c(C(C)C)cc1C1(c2cc(C(C)C)c(O)cc2C)OC(=O)c2ccccc21 ? 2

Quick one: growth inhibition of CC(=O)OC1CC2C(C)(C)C(=O)C=C[C@]2(C)C2CCC3(C)C(=CCC3[C@H](CO)C[C@H](O)C(=O)C(C)(C)O)[C@]12C (stereo partly drawn) ? -34

***
Quick one: growth inhibition of COC(=O)Oc1cc(Cl)c(Cl)cc1Cl ? 0

Quick one: growth inhibition of O=C1C(Br)=C(c2ccccc2)O/C1=C/C(=O)c1ccc(Br)cc1 ? 1

Quick one: growth inhibition of Cc1ccccc1N=Cc1cc(Cl)ccc1O ? -2

Quick one: growth inhibition of COc1ccc(C/C=N/Nc2ccc([N+](=O)[O-])cc2)cc1OC ? -17

Quick one: growth inhibition of O=C(/C=C\c1cccc(C(F)(F)F)c1)c1ccccc1 ? -2

Quick one: growth inhibition of OC(CCNCc1ccccc1)c1ccc2ccccc2c1 (stereo not drawn) ? 18

Quick one: growth inhibition of O=C1OC(C2=CC(=O)c3ccccc3C2=O)C(Cl)=C1Cl (stereo not drawn) ? 4

Quick one: growth inhibition of CS(=O)(=O)SCc1ccc([N+](=O)[O-])cc1 ? -3

Quick one: growth inhibition of CCCCN(CCCC)C(=O)/C=C/c1ccccc1 ? -17

Quick one: growth inhibition of COc1ccc(C2C3=C(COC3=O)OC(C)(C)Oc3cc4c(cc32)OCO4)cc1OC (stereo not drawn) ? 37

Quick one: growth inhibition of Cc1ccc(NC(=O)/C(CC2N=c3c(ccc4c(O)c5ccccc5c(O)c34)=NC2O)=N/NC(C)(C)C)cc1 (stereo not drawn) ? 3

Quick one: growth inhibition of CCC(C)(C)c1ccc(Oc2cccc(C(=O)O)c2)cc1 ? 6

Quick one: growth inhibition of CCCC(O)C1CC(C(C)C)CCC1C (stereo not drawn) ? -2

Quick one: growth inhibition of O=[n+]1c2ccccc2n([O-])c2cc(Br)ccc21 ? 34

====

# EXPERIMENTAL_PROTOCOL: NCI Yeast Anticancer Drug Screen. Data for the rad50 strain (AID 155);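 note: 0% = growth of vehicle-only cultures of the same strain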
# EXPERIMENTAL_SETUP: S. cerevisiae rad50 strain growth inhibition; at 100.0 µM; stronger effect = higher value
The panel holds about 79,000 compounds, 15% with a hit somewhere; the sample as a whole holds those more often.
Each record here notes measured growth inhibition.
Numeric answer only, unit % assumed.

Solved cases (8 shown):
Quick one: growth inhibition of O=C1/C(=C/c2ccccc2)CCCC1CN1CCCCC1 (stereo unspecified) ? 68

Quick one: growth inhibition of C=C1C(=O)OC2CC1C(OC(C)=O)C/C(C)=C/CC/C(C)=C\CCC2(C)O (stereo unspecified) ? 86

Quick one: growth inhibition of O=c1[nH]c(-c2ccccc2)nc2c1sc1nc3ccccc3n12 ? -9

Quick one: growth inhibition of Cc1cc(C(C)(C)CC(C)(C)C)ccc1O ? 99

Quick one: growth inhibition of Cc1cc(-c2cc(C)c(O)c(C(C)(C)C)c2)cc(C(C)(C)C)c1O ? 72

Quick one: growth inhibition of O=C(CC(=O)n1nc(-c2ccccc2)c(N=Nc2ccc(Cl)cc2)c1-c1ccccc1)Nc1cccc(Cl)c1 ? 2

Quick one: growth inhibition of Cc1cc(S(=O)(=O)Nc2nnc3cnc4ccccc4n23)c(S)cc1Cl ? 37

Quick one: growth inhibition of O=[N+]([O-])c1ccc2c(c1)/C(=N/N=C1c3ccccc3Cc3ccccc31)c1cc([N+](=O)[O-])cc([N+](=O)[O-])c1-2 ? 94

***
Quick one: growth inhibition of CN(C)CCCCN1c2ccccc2Sc2ccc(N=[N+]=[N-])cc21 ? 98

Quick one: growth inhibition of C=C(C(=C)n1nnc(C(=O)OC)c1C(=O)OC)n1nnc(C(=O)OC)c1C(=O)OC ? -2

Quick one: growth inhibition of CC1OC(O[C@H]2/C=C/C=C/C=C/C=C/C=C/C=C/C=C/[C@H](C)[C@@H](O)[C@@H](C)[C@H](C)OC(=O)C[C@H](O)C[C@H](O)CC[C@@H](O)[C@H](O)C[C@H](O)C[C@]3(O)C[C@H](O)[C@@H](C(=O)O)[C@H](C2)O3)C(O)C(N)C1O (stereo partly specified) ? 97

Quick one: growth inhibition of NNC(=O)CCc1cc2ccccc2c2ccccc12 ? 99

Quick one: growth inhibition of CN(C)Cc1cc(N=Nc2ccc(Cl)cc2)ccc1OC(=O)c1ccccc1 ? 11
